Reported pIC50 values follow for various compounds
- system-under-test: Aurora A (Homo sapiens, UniProt O14965)
- Sequence (O14965 whole entry): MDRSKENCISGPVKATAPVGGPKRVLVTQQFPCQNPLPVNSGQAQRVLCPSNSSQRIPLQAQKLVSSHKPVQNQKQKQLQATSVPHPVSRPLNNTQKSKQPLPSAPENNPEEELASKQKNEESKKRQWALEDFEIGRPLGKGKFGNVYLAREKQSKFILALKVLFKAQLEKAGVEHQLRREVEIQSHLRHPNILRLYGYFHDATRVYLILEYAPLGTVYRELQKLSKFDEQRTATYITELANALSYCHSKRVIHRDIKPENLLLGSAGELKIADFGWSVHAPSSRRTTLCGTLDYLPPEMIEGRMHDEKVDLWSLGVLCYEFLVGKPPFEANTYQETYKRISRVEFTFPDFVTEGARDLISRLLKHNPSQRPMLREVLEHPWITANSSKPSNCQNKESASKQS
pIC50: −log10 of the molar value.

{"compound": "NC(=O)c1ccsc1Nc1nc(Nc2ccc(N3CCN(CC(F)(F)F)CC3)cc2OC(F)F)ncc1Cl [Compound I-34]", "pIC50": "6.00 to 7.00"}
{"compound": "NC(=O)c1sccc1Nc1nc(Nc2ccc(N3CCC(N4CCCC4)CC3)cc2OC(F)F)ncc1Cl [Compound I-48]", "pIC50": "7.00 to 7.96"}
{"compound": "CCN1CCN(c2ccc(Nc3ncc(Cl)c(Nc4cscc4C(N)=O)n3)c(OC(F)F)c2)CC1 [Compound I-14]", "pIC50": "6.00 to 7.00"}
{"compound": "C[C@@H]1CN(c2ccc(Nc3ncc(Cl)c(Nc4ccsc4C(N)=O)n3)c(OC(F)F)c2)C[C@H](C)N1C [Compound I-8]", "pIC50": "7.00 to 7.96"}

* * *

- system-under-test: NUAK2 (h) (Homo sapiens)
- Construct: This assay was done radiometrically using full-length, recombinant enzyme
- Sequence (Q9H093 whole entry): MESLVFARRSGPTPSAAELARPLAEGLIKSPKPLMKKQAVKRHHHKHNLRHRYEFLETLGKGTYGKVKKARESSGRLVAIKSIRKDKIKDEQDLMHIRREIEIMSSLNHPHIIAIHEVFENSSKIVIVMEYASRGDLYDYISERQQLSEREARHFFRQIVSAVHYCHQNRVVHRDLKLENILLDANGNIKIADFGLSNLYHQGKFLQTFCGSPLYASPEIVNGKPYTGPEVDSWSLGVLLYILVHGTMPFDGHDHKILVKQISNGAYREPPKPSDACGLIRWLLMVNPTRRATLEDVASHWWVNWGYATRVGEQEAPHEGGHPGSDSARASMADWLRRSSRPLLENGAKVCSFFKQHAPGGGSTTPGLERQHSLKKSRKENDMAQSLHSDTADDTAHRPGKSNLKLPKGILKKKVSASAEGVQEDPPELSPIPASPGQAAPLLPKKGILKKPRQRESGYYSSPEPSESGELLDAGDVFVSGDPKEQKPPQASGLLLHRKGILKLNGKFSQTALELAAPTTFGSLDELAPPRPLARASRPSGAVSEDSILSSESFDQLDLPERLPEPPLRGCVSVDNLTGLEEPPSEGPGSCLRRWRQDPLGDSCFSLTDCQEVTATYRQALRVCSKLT
- run-description: NUAK2 enzymatic assay (radiometric, Eurofins)
- condition: radiometric, full-length recombinant enzyme
- Protocol: To identify small molecule NUAK inhibitors, a biochemical NUAK2 enzymatic assay was outsourced to Eurofins. This assay was done radiometrically using full-length, recombinant enzyme. NUAK2 (h) was incubated with 8 mM MOPS pH 7.0, 0.2 mM EDTA, 300 μM […], 10 mM magnesium acetate and […] (specific activity and concentration as required). The reaction was initiated by the addition of the Mg/ATP mix. […]

{"molecule": "CNC(=O)c1sccc1Nc1nc(Nc2ccc(N3CCN(C)CC3)cc2C(F)(F)F)ncc1Cl [Compound I-59]", "IC50": "11 to 100 nM"}
{"molecule": "CC(C)(C)N1CCN(c2ccc(Nc3ncc(Cl)c(Nc4sccc4C(N)=O)n3)c(OC(F)F)c2)CC1 [Compound I-22]", "IC50": "11 to 100 nM"}
{"molecule": "COc1c(Nc2ncc(Cl)c(Nc3ccsc3C(N)=O)n2)ccc(N2CCN(C)CC2)c1F [Compound C-2, reference compound]", "IC50": "0.1 to 10 nM"}
{"molecule": "CN1CCN(c2ccc(Nc3ncc(Cl)c(N[C@@H]4CCCC[C@H]4C(N)=O)n3)c(OC(F)F)c2)CC1 [Compound I-82]", "IC50": "0.1 to 10 nM"}
{"molecule": "NC(=O)c1ccsc1Nc1nc(Nc2ccc(N3CCN(CC(F)(F)F)CC3)cc2OC(F)F)ncc1Cl [Compound I-34]", "IC50": "101 to 1000 nM"}
{"molecule": "NC(=O)c1ccsc1Nc1nc(Nc2ccc(N3CCCC3)cc2OC(F)F)ncc1Cl [Compound I-31]", "IC50": "> 1000 nM"}
{"molecule": "CN1CCN(C2CCN(c3ccc(Nc4ncc(Cl)c(N[C@@H]5CCCC[C@H]5C(N)=O)n4)c(OC(F)F)c3)CC2)CC1 [Compound I-87]", "IC50": "11 to 100 nM"}
{"molecule": "CN1CCN(c2ccc(Nc3ncc(F)c(Nc4ccsc4C(N)=O)n3)c(OC(F)F)c2)CC1 [Compound I-37]", "IC50": "11 to 100 nM"}
{"molecule": "CN1CCC(c2ccc(Nc3ncc(Cl)c(Nc4ccsc4C(N)=O)n3)c(OC(F)F)c2)CC1 [Compound I-25]", "IC50": "11 to 100 nM"}
{"molecule": "CN1CCCN(C2CCN(c3ccc(Nc4ncc(C(F)(F)F)c(Nc5ccsc5C(N)=O)n4)c(OC(F)F)c3)CC2)CC1 [Compound I-75]", "IC50": "0.1 to 10 nM"}
{"molecule": "CCN1CCN(c2ccc(Nc3ncc(Cl)c(Nc4ccsc4C(N)=O)n3)c(OC(F)F)c2)CC1 [Compound I-5]", "IC50": "11 to 100 nM"}
{"molecule": "NC(=O)c1sccc1Nc1nc(Nc2ccc(N3CCC(N4CCCCC4)CC3)cc2OC(F)F)ncc1Cl [Compound I-58]", "IC50": "0.1 to 10 nM"}
{"molecule": "CN1CCC2(CC1)CCN(c1ccc(Nc3ncc(Cl)c(Nc4ccsc4C(N)=O)n3)c(OC(F)F)c1)CC2 [Compound I-54]", "IC50": "11 to 100 nM"}
{"molecule": "CN1CCN(c2ccc(Nc3nccc(Nc4ccsc4C(N)=O)n3)c(OC(F)F)c2)CC1 [Compound I-3]", "IC50": "101 to 1000 nM"}
{"molecule": "CN(C)[C@H]1CCN(c2ccc(Nc3ncc(Cl)c(Nc4ccsc4C(N)=O)n3)c(OC(F)F)c2)C1 [Compound I-56]", "IC50": "11 to 100 nM"}
{"molecule": "CN1CCN(c2ccc(Nc3ncc(Cl)c(Nc4sccc4C(N)=O)n3)c(OC(F)(F)F)c2)CC1 [Compound I-19]", "IC50": "11 to 100 nM"}
{"molecule": "C[C@H]1CN(c2ccc(Nc3ncc(Cl)c(Nc4ccsc4C(N)=O)n3)c(OC(F)F)c2)CCN1C [Compound I-21]", "IC50": "0.1 to 10 nM"}
{"molecule": "CN1CCN(c2ccc(Nc3ncc(C#N)c(Nc4ccsc4C(N)=O)n3)c(OC(F)F)c2)CC1 [Compound I-38]", "IC50": "0.1 to 10 nM"}
{"molecule": "CC(C)N1C[C@@H]2C[C@H]1CN2c1ccc(Nc2ncc(Cl)c(Nc3sccc3C(N)=O)n2)c(OC(F)F)c1 (stereo in doubt) [Compound I-36]", "IC50": "11 to 100 nM"}
{"molecule": "NC(=O)c1sccc1Nc1nc(Nc2ccc(N3CCC(N4CCOCC4)CC3)cc2OC(F)F)ncc1Cl [Compound I-43]", "IC50": "0.1 to 10 nM"}
{"molecule": "Cc1csc(Nc2nc(Nc3ccc(N4CCN(C)CC4)cc3OC(F)F)ncc2Cl)c1C(N)=O [Compound I-15]", "IC50": "11 to 100 nM"}
{"molecule": "CN(C1CCCCC1)C1CCN(c2ccc(Nc3ncc(Cl)c(Nc4ccsc4C(N)=O)n3)c(OC(F)F)c2)CC1 [Compound I-73]", "IC50": "11 to 100 nM"}
{"molecule": "CC(C)N1C[C@@H]2C[C@H]1CN2c1ccc(Nc2ncc(Cl)c(Nc3ccsc3C(N)=O)n2)c(OC(F)F)c1 (stereo in doubt) [Compound I-35]", "IC50": "11 to 100 nM"}

* * *

- system-under-test: NUAK2 (h) (Homo sapiens)
- Construct: This assay was done radiometrically using full-length, recombinant enzyme
- run-description: NUAK2 enzymatic assay (radiometric, Eurofins)
- condition: radiometric, full-length recombinant enzyme
pIC50: −log10 of the molar value.
Reported pIC50 values follow for various compounds
measure: pIC50

{"compound": "C[C@H]1CN(c2ccc(Nc3ncc(Cl)c(Nc4sccc4C(N)=O)n3)c(OC(F)F)c2)CCN1C", "result": "7.00 to 7.96"}
{"compound": "C[C@H]1CN(C2CCN(c3ccc(Nc4ncc(C(F)(F)F)c(Nc5ccsc5C(N)=O)n4)c(OC(F)F)c3)CC2)CCN1C", "result": "7.00 to 7.96"}
{"compound": "C[C@H]1CN(C2CCN(c3ccc(Nc4ncc(Cl)c(Nc5ccsc5C(N)=O)n4)c(OC(F)F)c3)CC2)CCN1C", "result": "7.00 to 7.96"}
{"compound": "CN1CCN(c2ccc(Nc3ncc(Cl)c(N[C@@H]4CCC[C@@H]4C(N)=O)n3)c(OC(F)F)c2)CC1", "result": "7.00 to 7.96"}
{"compound": "COCCN1CCN(c2ccc(Nc3ncc(Cl)c(Nc4ccsc4C(N)=O)n3)c(OC(F)F)c2)CC1", "result": "7.00 to 7.96"}
{"compound": "COc1cc(N2CCN(C)CC2)ccc1Nc1ncc(Cl)c(Nc2ccsc2C(N)=O)n1 [Compound C-1, reference compound]", "result": "8.00 to 10.00"}
{"compound": "CC(C)Oc1cc(N2CCN(C)CC2)ccc1Nc1ncc(Cl)c(N[C@@H]2CCCC[C@@H]2C(N)=O)n1 [Compound C-6, reference compound]", "result": "6.00 to 7.00"}

* * *

Reported pIC50 values follow for various molecules
Target sequence: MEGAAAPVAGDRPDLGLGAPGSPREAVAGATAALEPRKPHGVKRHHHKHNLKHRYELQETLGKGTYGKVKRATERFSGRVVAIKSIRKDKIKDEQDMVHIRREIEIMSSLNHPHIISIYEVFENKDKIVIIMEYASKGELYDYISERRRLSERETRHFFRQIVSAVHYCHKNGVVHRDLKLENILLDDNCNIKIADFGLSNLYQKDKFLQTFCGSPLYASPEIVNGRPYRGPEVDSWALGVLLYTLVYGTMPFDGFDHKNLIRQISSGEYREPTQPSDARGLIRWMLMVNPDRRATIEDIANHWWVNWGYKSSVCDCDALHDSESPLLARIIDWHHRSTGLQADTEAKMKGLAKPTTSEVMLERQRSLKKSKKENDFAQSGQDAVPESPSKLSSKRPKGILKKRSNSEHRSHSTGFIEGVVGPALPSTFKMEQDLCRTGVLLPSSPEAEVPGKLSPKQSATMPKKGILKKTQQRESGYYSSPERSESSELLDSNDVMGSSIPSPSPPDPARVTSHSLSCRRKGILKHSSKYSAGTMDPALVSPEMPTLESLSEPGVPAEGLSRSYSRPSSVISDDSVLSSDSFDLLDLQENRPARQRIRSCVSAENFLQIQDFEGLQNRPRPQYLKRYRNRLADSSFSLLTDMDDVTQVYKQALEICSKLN
pIC50: −log10 of the molar value.

{"molecule": "Cc1c(Nc2ncc(Cl)c(Nc3ccsc3C(N)=O)n2)ccc(N2CCN(C)CC2)c1F [Compound C-5, reference compound]", "pIC50": "7.00 to 7.96"}
{"molecule": "C[C@@H]1CN(C2CCN(c3ccc(Nc4ncc(C(F)(F)F)c(Nc5ccsc5C(N)=O)n4)c(OC(F)F)c3)CC2)C[C@H](C)N1C [Compound I-67]", "pIC50": "7.00 to 7.96"}
{"molecule": "CN(C)[C@H]1CCN(c2ccc(Nc3ncc(Cl)c(Nc4ccsc4C(N)=O)n3)c(OC(F)F)c2)C1 [Compound I-56]", "pIC50": "8.00 to 10.00"}
{"molecule": "CCN1CCN(C2CCN(c3ccc(Nc4ncc(C(F)(F)F)c(Nc5ccsc5C(N)=O)n4)c(OC(F)F)c3)CC2)CC1 [Compound I-77]", "pIC50": "8.00 to 10.00"}
{"molecule": "CC(C)(C)N1CCN(C2CCN(c3ccc(Nc4ncc(Cl)c(Nc5ccsc5C(N)=O)n4)c(OC(F)F)c3)CC2)CC1 [Compound I-63]", "pIC50": "8.00 to 10.00"}
{"molecule": "C[C@H]1CN(C2CCN(c3ccc(Nc4ncc(C(F)(F)F)c(Nc5ccsc5C(N)=O)n4)c(OC(F)F)c3)CC2)CCN1C [Compound I-68]", "pIC50": "7.00 to 7.96"}

src = patent US20240025887A1
